# Test Target: TRAP1 enzyme (Homo sapiens)
# Construct: 150 nM Trap1 enzyme was incubated with various concentrations of the test compound
# Sequence (Q12931 60-704): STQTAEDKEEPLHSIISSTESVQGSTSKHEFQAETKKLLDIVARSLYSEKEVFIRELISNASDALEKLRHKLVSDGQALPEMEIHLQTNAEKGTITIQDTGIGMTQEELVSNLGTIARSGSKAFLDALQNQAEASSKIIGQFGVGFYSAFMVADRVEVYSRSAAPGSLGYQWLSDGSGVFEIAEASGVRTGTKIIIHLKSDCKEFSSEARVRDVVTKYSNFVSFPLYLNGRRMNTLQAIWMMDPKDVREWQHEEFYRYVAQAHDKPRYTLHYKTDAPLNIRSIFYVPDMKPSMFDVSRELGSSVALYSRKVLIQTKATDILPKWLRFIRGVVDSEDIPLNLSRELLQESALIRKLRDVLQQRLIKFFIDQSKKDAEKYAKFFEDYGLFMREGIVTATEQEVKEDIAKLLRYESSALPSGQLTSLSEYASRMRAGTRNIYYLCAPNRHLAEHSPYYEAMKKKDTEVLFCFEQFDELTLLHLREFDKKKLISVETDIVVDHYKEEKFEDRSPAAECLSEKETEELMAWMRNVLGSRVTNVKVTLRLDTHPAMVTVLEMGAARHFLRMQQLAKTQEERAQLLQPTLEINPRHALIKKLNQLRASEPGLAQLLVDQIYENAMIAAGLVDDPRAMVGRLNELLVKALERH
# Assay: ADP Glo assay of TRAP1 ATPase activity
# Assay type: biochemical
# Test Settings: maximal percent activation; read-out: ADP GLO DRC: Mean Emax
Parameter: Emax

Entry Cc1cccc(C)c1NS(=O)(=O)c1cc(NC(=O)c2csc(-c3ccccc3)n2)cnc1OCC(O)CO (stereo not shown) [compound 2418] : reported Emax = ? 160 to 199%

Please do the same for COc1ncc(NC(=O)c2ccc3nccnc3c2)cc1S(=O)(=O)Nc1ccc(Cl)cc1 [compound 1198] as well. 160 to 199%

Queued: COc1ncc(NC(=O)c2ncc(-c3ccccc3)o2)cc1S(=O)(=O)Nc1cc(C(F)(F)F)n[nH]1 [compound 2361] 119 to 159%

Same for Cc1ncoc1C(=O)Nc1cc(S(=O)(=O)Nc2ccc(Cl)cc2)cc[n+]1[O-] [compound 1294] 119 to 159%

Let us now turn to COc1ncc(NC(=O)c2csc(-c3ccccc3)n2)cc1S(=O)(=O)Nc1c(C)cc(F)cc1C [compound 1389] 119 to 159%

Input COc1ncc(NC(=O)c2csc3c2C2CCN3CC2)cc1S(=O)(=O)Nc1c(C)cccc1C [compound 1946] 160 to 199%

More entries:
Given the entry COc1ncc(NC(=O)c2csc(-c3ccccc3)n2)cc1S(=O)(=O)Nc1nc(C(C)(C)C)ns1 [compound 1839] , report its measured Emax. 200 to 300%

---

Reported Emax by item:
# Test Target: TRAP1 enzyme (Homo sapiens)
# Construct: 150 nM Trap1 enzyme was incubated with various concentrations of the test compound
# Assay: ADP Glo assay of TRAP1 ATPase activity
# Assay type: biochemical
# Test Settings: maximal percent activation; read-out: ADP GLO DRC: Mean Emax

Examples from the recorded data:
Form field - read-out: Emax; system: TRAP1 enzyme (Homo sapiens); submitted item: COc1ncc(NC(=O)c2nn(C)c3ccccc23)cc1S(=O)(=O)Nc1c(C)cccc1C [compound 1423] 160 to 199%

Next up: COc1ncc(NC(=O)c2csc(-c3ccccc3)n2)cc1S(=O)(=O)Nc1c(C2CC2)cccc1C1CC1 [compound 2499] 160 to 199%

Thanks! And COc1ncc(NC(=O)C(C)n2cc(Br)cn2)cc1S(=O)(=O)Nc1ccc(Cl)cc1 (stereo not drawn) [compound 1213] ? 119 to 159%

***
Checklist item: Emax tested on TRAP1 enzyme (Homo sapiens), entry COc1ncc(NC(=O)c2coc(-c3ccccc3)n2)cc1S(=O)(=O)Nc1ccc(F)cc1C [compound 1950] , value? 119 to 159%

// repeat for COc1ncc(NC(=O)c2csc3c2CCCCC3)cc1S(=O)(=O)Nc1c(C)cccc1C [compound 1486] and report 160 to 199%

And COc1ncc(NC(=O)c2cccc3ncoc23)cc1S(=O)(=O)Nc1c(C)cccc1C [compound 1367] ? > 300%

---

# Test Target: TRAP1 enzyme (Homo sapiens)
# Construct: 150 nM Trap1 enzyme was incubated with various concentrations of the test compound
# Assay: ADP Glo assay of TRAP1 ATPase activity
# Type: biochemical
# Test Settings: maximal percent activation; read-out: ADP GLO DRC: Mean Emax
# Experimental: Potency of test compounds to modulate the ATPase activity of TRAP1 enzyme was evaluated using ADP Glo assay. The assay is based on quantification of the ADP generated from ATP in the ATPase reaction. […] Second, the Kinase Detection Reagent is added to simultaneously convert ADP to ATP and allow the newly synthesized ATP to be measured using a luciferase/luciferin reaction. […]
Parameter: Emax

// below: answered compounds
What does the record list as Emax for "COc1ncc(NC(=O)c2csc(-c3cccnc3)n2)cc1S(=O)(=O)Nc1ccc(F)c(F)c1C" ? 200 to 300%

"COc1ncc(NC(=O)c2ncc(-c3ccccc3)o2)cc1S(=O)(=O)Nc1c(F)cccc1C(F)(F)F" , same question. 160 to 199%

Same read-out for "COc1ncc(NC(=O)c2csc(C(F)(F)F)n2)cc1S(=O)(=O)Nc1c(C)cccc1C" ? 160 to 199%

Continuing:
Need Emax of "COc1ncc(NC(=O)c2coc(-c3ccccc3)n2)cc1S(=O)(=O)Nc1c(C)cccc1C" , thanks. 200 to 300%
